src = patent US20260167959A1

Below, each entry is listed alongside its reported Fold change in RNA expression between the ON state and the OFF state.
- Test system: Renilla luciferase RNA
- procedure details: Barcoded aptazyme variant library screen: un-cleaved Renilla luciferase RNA by barcode read counts, HEK293-T cells
- Assay type: cell-based
- test context: un-cleaved Renilla luciferase RNA, HEK293-T cells cultured with 1 mM theophylline (ON) over without theophylline (OFF); barcode read counts, triplicate
Give your result in fold as a bare value.

>  <molecule>
RA008 (nucleic acid, expressed or natural sequence) DNA: GCGCGTCCTGGATTCGCGGAAACGGAATACCAGCATCGTCTTGATGCCCTTGGAAGTCCGCGCGTACATCCAGCTGACGAGTCCCAAATAGGACGAAACGCGC

>  <value>
4.2

$$$$
>  <molecule>
RA189 (nucleic acid, expressed or natural sequence) DNA: GCGCGTCCTGGATTCGGAATACCAGCATCGTCTTGATGCCCTTGGAAGTCCGCGGAAACGCGTACATCCAGCTGACGAGTCCCAAATAGGACGAAACGCGC

>  <value>
1.2

$$$$
>  <molecule>
RA023 (nucleic acid, expressed or natural sequence) DNA: GCGCGTCCTGGATTCGCGGAAACGCGTGAGAATACCAGCATCGTCTTGATGCCCTTGGAAGTCTCACATCCAGCTGACGAGTCCCAAATAGGACGAAACGCGC

>  <value>
2.6

$$$$
>  <molecule>
RA169 (nucleic acid, expressed or natural sequence) DNA: GCGCGTCCTGGCCGGAATACCAGCATCGTCTTGATGCCCTTGGAAGTCCGGATTCGCGGAAACGCGTACATCCAGCTGACGAGTCCCAAATAGGACGAAACGCGC

>  <value>
1.3

$$$$
>  <molecule>
RA175 (nucleic acid, expressed or natural sequence) DNA: GCGCGTCCTGGATTCGCGGAAACGCGTACATCCAGCTGACGAGTCCCAAATAGGACGAAACGCGCCGAGAATACCAGCATCGTCTTGATGCCCTTGGAAGTCTCG

>  <value>
1.3

$$$$
>  <molecule>
RA114 (nucleic acid, expressed or natural sequence) DNA: GCGCGTCCTGGATTCGCGGAAACGCGTACATCCAGCTGACGAGTCCCAAATAGGACGAGGAATACCAGCATCGTCTTGATGCCCTTGGAAGTCCAACGCGC

>  <value>
1.5

$$$$

*Q* Quick check: Fold change in RNA expression between the ON state and the OFF state of RA214 (nucleic acid, expressed or natural sequence) DNA: GCGCGTCCTGGATTCGCGAGAATACCAGCATCGTCTTGATGCCCTTGGAAGTCTCGGAAACGCGTACATCCAGCTGACGAGTCCCAAATAGGACGAAACGCGC ?
*A* 1.2
